# Test system: mouse bone marrow cells
# protocol description: Metabolism promoting action on mouse bone marrow cells (mitochondrial metabolism activity, MTT reduction method)
# Type: cell-based, BALB/c mouse
# details: Mus musculus, Bone marrow cell, 120 h; Test compound concentration 6.25 µg/ml; 5 days; magnitude of metabolism, no test compound = one
property name: activity at 6.25 µg/mL (%)
Enter your answer as a number in %; do not include the unit.

{"compound": "COc1cc2c(c(OC)c1CC=C(C)C)CC(c1ccc(O)cc1O)CO2 (stereo not shown) [B-9]", "endpoint unit": "%", "activity at 6.25 µg/mL": 110}
{"compound": "COc1c(CCC(C)C)c(O)cc2c1CC(c1ccc(O)c(CCC(C)C)c1OC(C)C)CO2 (stereo not shown) [A-22]", "endpoint unit": "%", "activity at 6.25 µg/mL": 40}
{"compound": "COc1c(C2COc3cc(O)c(CC=C(C)C)c(OC)c3C2)ccc(O)c1CC=C(C)C (stereo not shown) [A-8]", "endpoint unit": "%", "activity at 6.25 µg/mL": 50}
{"compound": "CCCCCCCCCOc1cc2c(c(OC)c1CCC(C)C)CC(c1ccc(O)c(CCC(C)C)c1OCCCCCCCCC)CO2 (stereo not shown) [A-18]", "endpoint unit": "%", "activity at 6.25 µg/mL": 119}
{"compound": "COc1cc2c(c(OC)c1CC=C(C)C)CC(c1ccc(O)c(CC=C(C)C)c1OC)CO2 (stereo not shown) [A-5]", "endpoint unit": "%", "activity at 6.25 µg/mL": 55}
{"compound": "COc1cc(OC)c2c(c1)OCC(c1ccc(O)cc1OCC=C(C)C)C2 (stereo not shown) [B-5]", "endpoint unit": "%", "activity at 6.25 µg/mL": 205}
{"compound": "COc1cc(O)c2c(c1)OCC(c1ccc(OCc3ccccc3)cc1OCc1ccccc1)C2 (stereo not shown) [B-7]", "endpoint unit": "%", "activity at 6.25 µg/mL": 132}
{"compound": "CCCCCCOc1cc2c(c(OC)c1CCC(C)C)CC(c1ccc(O)c(CCC(C)C)c1OCCCCCC)CO2 (stereo not shown) [A-14]", "endpoint unit": "%", "activity at 6.25 µg/mL": 199}
{"compound": "COc1cc(OC)c2c(c1)OCC(c1ccc(OCC=C(C)C)cc1OCC=C(C)C)C2 (stereo not shown) [B-3]", "endpoint unit": "%", "activity at 6.25 µg/mL": 183}
{"compound": "COc1c(CC=C(C)C)c(O)cc2c1CC(c1ccc(O)c(CC=C(C)C)c1O)CO2 (stereo not shown) [A-1]", "endpoint unit": "%", "activity at 6.25 µg/mL": 198}

Prompt: Can you share its activity at 6.25 µg/mL? I mean this compound: COc1cc2c(c(OC)c1CC=C(C)C)CC(c1ccc(O[Si](C)(C)C(C)(C)C)cc1O[Si](C)(C)C(C)(C)C)CO2 (stereo not shown) [B-12]
Completion: 129
